Cited source for all entries: paper PMC4234452

- target-of-assay: Human Transglutaminase 3 (TG3) (Homo sapiens, UniProt Q08188)
- Sequence (Q08188 2-467 limits assumed): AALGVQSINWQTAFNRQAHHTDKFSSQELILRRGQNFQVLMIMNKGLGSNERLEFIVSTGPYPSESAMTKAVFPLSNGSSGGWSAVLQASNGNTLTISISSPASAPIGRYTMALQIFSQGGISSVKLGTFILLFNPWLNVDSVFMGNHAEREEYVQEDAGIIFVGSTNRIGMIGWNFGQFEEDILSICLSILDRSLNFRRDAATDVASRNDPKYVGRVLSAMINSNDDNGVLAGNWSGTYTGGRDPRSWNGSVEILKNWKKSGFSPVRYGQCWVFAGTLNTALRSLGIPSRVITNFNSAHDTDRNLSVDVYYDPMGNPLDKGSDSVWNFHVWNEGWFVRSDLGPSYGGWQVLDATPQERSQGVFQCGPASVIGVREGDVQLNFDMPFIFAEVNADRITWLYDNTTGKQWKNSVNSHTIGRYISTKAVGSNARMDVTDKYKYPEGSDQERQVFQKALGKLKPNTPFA
- Sequence (Q08188 468-693 partner limits assumed): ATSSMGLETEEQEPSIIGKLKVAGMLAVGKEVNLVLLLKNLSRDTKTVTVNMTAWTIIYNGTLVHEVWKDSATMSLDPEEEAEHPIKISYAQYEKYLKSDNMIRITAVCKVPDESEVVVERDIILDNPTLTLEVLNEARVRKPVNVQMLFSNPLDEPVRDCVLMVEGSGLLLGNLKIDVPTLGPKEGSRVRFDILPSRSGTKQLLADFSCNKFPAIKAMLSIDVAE
- test-summary: GDH-coupled transglutaminase assay, TG3
- Format: biochemical
- particulars: irreversible inhibition model, substrate ZQS
result-type: kinh/Ki TG3

O=C(N[C@@H]1C[C@@H](C(=O)NC[C@@H]2CC(Br)=NO2)N(C(=O)OCc2cnc3ccccc3c2)C1)c1ccc(O)cc1 | < 16.7 M⁻¹ s⁻¹
O=C(NC[C@@H]1CC(Br)=NO1)[C@@H]1C[C@H](F)CN1C(=O)OCc1cnc2ccccc2c1 | < 16.7 M⁻¹ s⁻¹

Read the next record carefully.
Short answer on Human Transglutaminase 3 (TG3) (Homo sapiens, UniProt Q08188) for `O=C(NC[C@@H]1CC(Br)=NO1)[C@@H]1C[C@@H](c2ccccc2)CN1C(=O)OCc1cnc2ccccc2c1` , kinh/Ki TG3: < 16.7 M⁻¹ s⁻¹
